Ref: PubChem BioAssay AID1918

# B-score annotations
- targetEntity: ATP-sensitive inward rectifier potassium channel 1 (Homo sapiens)
- experiment: ROMK potassium channel modulators, primary screen, cell-based, thallium flux, MLSMR library (AID 1918);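 also: B-score of the F/F0 ratio slope over 7 to 12 s after thallium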
- conditionSummary: Tet-inducible ROMK, thallium flux fluorescence; at 10 µM; actives lie on both sides
The whole screen tested about 130,000 compounds, of which about 2,500 (1.9%) were called active. The sample as a whole holds a higher share of actives than the screen did.
metricName: B-score

* Cc1cc(C)nc(Nc2cc([N+](=O)[O-])ccc2C)n1 | -0.867
* S=C(NCc1ccc2c(c1)OCO2)NCc1ccco1 | -0.541
* COc1ccc(-c2[nH]ncc2CN(C)Cc2cc(C)[nH]n2)c(F)c1 | 0.139
* O=C(CSc1nc2ccccc2o1)N/N=C/c1ccccc1C(=O)O | 0.754
* CC(C)C(=O)Nc1oc(-c2ccccc2)cc1C#N | -0.0567
* COc1ccc(-c2[nH]ncc2CN(C)Cc2c(C)n[nH]c2C)c(OC)c1 | 1.28
* Cc1ccc(NC(=O)C(=O)NCC2CCN(C(=O)c3cccc([N+](=O)[O-])c3)CC2)cc1 | 0.475
* Cc1cc(/C=N/NC(N)=O)c(C)n1C1CCCCC1 | 3.24
* CC(C)CN(CC(C)C)CC(O)CN(c1ccccc1)S(=O)(=O)c1ccccc1[N+](=O)[O-] (centres undefined) | -2.88
* Cc1ccc(CNC(=O)CC2Sc3ccccc3NC2=O)cc1 (centres undefined) | 1.17
* COc1ccc(-c2[nH]ncc2CN(C)Cc2cccnc2)c(F)c1 | 0.572
* CCOC(=O)CSc1ccccn1 | -0.519
* COc1ccccc1-n1c(=S)[nH]c2c(sc(=S)n2-c2ccc(C)cc2C)c1=O | 2.35
* COc1cc2c(cc1OC)CN(C(=O)c1cc(=O)c3ccccc3o1)CC2 | 2.64
* CC(=O)Nc1ccc(OCCC[n+]2cccc(C(=O)[O-])c2)cc1 | 0.158
* CCN1CCC2(CCN(Cc3cn[nH]c3-c3ccc(OC)c(F)c3)C2)C1 (centres undefined) | 0.101
* FC(F)(F)c1cccc(Cc2noc(CN3CCC(N4CCCCC4)CC3)n2)c1 | -0.1
* CCc1ccc(C(=O)OCC(=O)Nc2cccc(S(=O)(=O)NC3=NCCCCC3)c2)cc1 | -1.41
* CCOc1ncccc1C(=O)OCC(=O)NC1CC1 | 0.144
* Cc1noc(COc2ccccc2OCC(O)CNC(C)(C)C)n1 (centres undefined) | -0.0138
* CCOC(=O)CSc1nc2c(sc(=S)n2CCc2ccccc2)c(=O)n1Cc1ccco1 | 0.0111
* CSc1cc(C)[nH]c(=O)n1 | 0.14
* O=C(COC(=O)CC1CC2CCC1C2)NC(=O)NC1CCCC1 (centres undefined) | -0.0323
* C=CCNC(=O)COC(=O)CNC(=O)c1cc(Cl)cc([N+](=O)[O-])c1 | 0.319
* CC(C(=O)NC1CCCC1)N(c1ccc(Oc2ccccc2)cc1)S(C)(=O)=O (centres undefined) | -3.71
* COc1ccc(/C=N/NC(=O)C(C)N(c2ccc(OC)cc2)S(C)(=O)=O)cc1 (centres undefined) | -0.0127
* COc1ccc(CC(=O)NC(C)CCc2ccccc2)cc1 (centres undefined) | -0.201
* CCc1ccc(-n2c(=S)sc3c(=O)n(-c4ccccc4OC)c(=S)[nH]c32)cc1 | 0.222
* COc1ccccc1N1CCN(C(=O)c2ccc(Cl)c(S(=O)(=O)N3CCCC3)c2)CC1 | -0.388
* CCOc1cc(C(=O)N2CCc3cc(OC)c(OC)cc3C2)ccc1OC(F)F | 4.09
* Cc1cccc(-n2c(C)cc(/C=N\NC(=O)c3cccs3)c2C)c1 | 0.454
* Cc1cccc(-n2c(C)cc(/C=N/NC(N)=S)c2C)c1 | 2.21
* COC(=O)C(C)C1Sc2ccccc2NC1=O (centres undefined) | -0.193
* O=C(NCc1ccc2c(c1)OCO2)c1ccc2c(c1)C(=O)N(CC1CCCO1)C2=O (centres undefined) | 0.455
* COc1cccc(-c2ccc(SCC(=O)N3CCN(c4ccccc4)CC3)nn2)c1 | 0.576
* C/C(=N\NC(=O)CSc1nc2ccccc2c(=O)n1-c1ccccc1C)c1cccs1 | 0.111
* O=C1c2cccc3c([N+](=O)[O-])ccc(c23)C(=O)N1CC1CCCO1 (centres undefined) | -2.58
* CCNC(=O)COC(=O)/C=C/c1c(C)nn(Cc2cccc(OC)c2)c1Cl | -0.509
* O=C(Nc1nc2ccc([N+](=O)[O-])cc2s1)c1ccc(S(=O)(=O)N2CCCc3ccccc32)cc1 | -2.44
* COc1ccc(CCNC(=O)CSc2nnc(CNC(=O)c3cccs3)o2)cc1OC | -0.208
* COc1cc(NC(=O)COc2ccccc2Cl)ccc1NC(=O)C(C)C | -0.0152
* O=C(CN1C(=O)NC2(CCCC2)C1=O)NCC1CCCO1 (centres undefined) | 0.00667
* CCCCCCCCCCOC(=O)C[N+](C)(C)CC1CCCCC1O (centres undefined) | -1.79
* O=C(N/C(=C\c1ccc(F)cc1)C(=O)N1CCCCCC1)c1ccccc1 | 0.658
